biological target: Protein skinhead-1 (Caenorhabditis elegans, UniProt P34707); assay type: functional
Sequence (P34707 whole entry): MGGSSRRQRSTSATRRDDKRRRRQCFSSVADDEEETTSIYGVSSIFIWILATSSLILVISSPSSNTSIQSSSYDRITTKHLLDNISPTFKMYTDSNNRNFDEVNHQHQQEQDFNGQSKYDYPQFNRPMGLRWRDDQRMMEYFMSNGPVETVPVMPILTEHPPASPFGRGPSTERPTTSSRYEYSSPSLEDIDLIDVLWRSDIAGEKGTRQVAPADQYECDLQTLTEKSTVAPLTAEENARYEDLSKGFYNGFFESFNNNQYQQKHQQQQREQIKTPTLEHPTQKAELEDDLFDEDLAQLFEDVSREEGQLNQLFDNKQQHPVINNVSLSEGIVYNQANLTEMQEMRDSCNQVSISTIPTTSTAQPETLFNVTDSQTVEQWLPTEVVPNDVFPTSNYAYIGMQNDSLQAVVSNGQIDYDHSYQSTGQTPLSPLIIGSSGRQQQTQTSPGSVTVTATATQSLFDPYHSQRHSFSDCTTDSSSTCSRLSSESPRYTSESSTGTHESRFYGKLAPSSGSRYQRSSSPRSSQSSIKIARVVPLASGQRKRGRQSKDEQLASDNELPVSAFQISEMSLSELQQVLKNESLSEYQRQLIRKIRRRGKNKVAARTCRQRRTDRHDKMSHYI
The source made the active and inactive calls.
In this exercise, the only acceptable responses are active, inactive

                                   compound     class
0           Brc1ccc(CSc2nnc(-c3ccco3)o2)cc1    active
1          Clc1ccc(SCc2cc(-c3ccccc3)on2)cc1  inactive
2  COCCNC(=O)C(c1ccc(C)o1)N(Cc1ccc(OC)cc1)C(=O)Cn1nnc2ccccc21 (configuration not stated)  inactive
3              c1ccc(Nc2nc(-c3cccs3)cs2)nc1    active
4      CC(=O)N1CCN(c2ccc(NCc3ccccc3)cc2)CC1  inactive

[ask] Lab log entry: "Cc1nc2ccccc2cc1OCc1ccc(Cl)cc1" — outcome as called in the assay?
[reply] inactive

[ask] Given "CC1(C)C(=Cc2ccccc2)C(=O)c2ccccc21" , state the outcome it received in this test.
[reply] active

[ask] What did the test return for "COc1cc(NS(=O)(=O)c2ccc(C)cc2)c2c(c1N)C(=O)c1ccccc1C2=O" ?
[reply] inactive

[ask] Hey, what did the test say about CCCS(=O)(=O)NC(=O)C1(C)CCN(C(=O)c2cccc(C)c2C)C1 (configuration not stated) ?
[reply] inactive

[ask] Any idea what this test logged for "COc1cc(NS(=O)(=O)c2ccc(Br)cc2)c(OC)cc1NC(=O)c1ccco1" ?
[reply] inactive

[ask] What did the test return for "CC1=NOC(=O)/C1=C/c1ccc(-c2ccc(Cl)cc2)o1" ?
[reply] inactive

[ask] // param item: "c1ccc(-c2csc(Nc3ccccn3)n2)cc1" ; yields the recorded call
[reply] active
